These data points were gathered from patent US12448369B2.

Measured Ventricular EC25, listed per entry for reference.
Target: Porcine ventricle myofibrils (ventricular myosin ATPase) (Sus scrofa)
Construct: Myofibrils from porcine cardiac muscle was isolated from the left ventricle of Yucatan minipigs; tissue Exemplar Genetics; host or cells: left ventricle of Yucatan minipigs, myofibrils prepared in house
Sequence (P79293 whole entry): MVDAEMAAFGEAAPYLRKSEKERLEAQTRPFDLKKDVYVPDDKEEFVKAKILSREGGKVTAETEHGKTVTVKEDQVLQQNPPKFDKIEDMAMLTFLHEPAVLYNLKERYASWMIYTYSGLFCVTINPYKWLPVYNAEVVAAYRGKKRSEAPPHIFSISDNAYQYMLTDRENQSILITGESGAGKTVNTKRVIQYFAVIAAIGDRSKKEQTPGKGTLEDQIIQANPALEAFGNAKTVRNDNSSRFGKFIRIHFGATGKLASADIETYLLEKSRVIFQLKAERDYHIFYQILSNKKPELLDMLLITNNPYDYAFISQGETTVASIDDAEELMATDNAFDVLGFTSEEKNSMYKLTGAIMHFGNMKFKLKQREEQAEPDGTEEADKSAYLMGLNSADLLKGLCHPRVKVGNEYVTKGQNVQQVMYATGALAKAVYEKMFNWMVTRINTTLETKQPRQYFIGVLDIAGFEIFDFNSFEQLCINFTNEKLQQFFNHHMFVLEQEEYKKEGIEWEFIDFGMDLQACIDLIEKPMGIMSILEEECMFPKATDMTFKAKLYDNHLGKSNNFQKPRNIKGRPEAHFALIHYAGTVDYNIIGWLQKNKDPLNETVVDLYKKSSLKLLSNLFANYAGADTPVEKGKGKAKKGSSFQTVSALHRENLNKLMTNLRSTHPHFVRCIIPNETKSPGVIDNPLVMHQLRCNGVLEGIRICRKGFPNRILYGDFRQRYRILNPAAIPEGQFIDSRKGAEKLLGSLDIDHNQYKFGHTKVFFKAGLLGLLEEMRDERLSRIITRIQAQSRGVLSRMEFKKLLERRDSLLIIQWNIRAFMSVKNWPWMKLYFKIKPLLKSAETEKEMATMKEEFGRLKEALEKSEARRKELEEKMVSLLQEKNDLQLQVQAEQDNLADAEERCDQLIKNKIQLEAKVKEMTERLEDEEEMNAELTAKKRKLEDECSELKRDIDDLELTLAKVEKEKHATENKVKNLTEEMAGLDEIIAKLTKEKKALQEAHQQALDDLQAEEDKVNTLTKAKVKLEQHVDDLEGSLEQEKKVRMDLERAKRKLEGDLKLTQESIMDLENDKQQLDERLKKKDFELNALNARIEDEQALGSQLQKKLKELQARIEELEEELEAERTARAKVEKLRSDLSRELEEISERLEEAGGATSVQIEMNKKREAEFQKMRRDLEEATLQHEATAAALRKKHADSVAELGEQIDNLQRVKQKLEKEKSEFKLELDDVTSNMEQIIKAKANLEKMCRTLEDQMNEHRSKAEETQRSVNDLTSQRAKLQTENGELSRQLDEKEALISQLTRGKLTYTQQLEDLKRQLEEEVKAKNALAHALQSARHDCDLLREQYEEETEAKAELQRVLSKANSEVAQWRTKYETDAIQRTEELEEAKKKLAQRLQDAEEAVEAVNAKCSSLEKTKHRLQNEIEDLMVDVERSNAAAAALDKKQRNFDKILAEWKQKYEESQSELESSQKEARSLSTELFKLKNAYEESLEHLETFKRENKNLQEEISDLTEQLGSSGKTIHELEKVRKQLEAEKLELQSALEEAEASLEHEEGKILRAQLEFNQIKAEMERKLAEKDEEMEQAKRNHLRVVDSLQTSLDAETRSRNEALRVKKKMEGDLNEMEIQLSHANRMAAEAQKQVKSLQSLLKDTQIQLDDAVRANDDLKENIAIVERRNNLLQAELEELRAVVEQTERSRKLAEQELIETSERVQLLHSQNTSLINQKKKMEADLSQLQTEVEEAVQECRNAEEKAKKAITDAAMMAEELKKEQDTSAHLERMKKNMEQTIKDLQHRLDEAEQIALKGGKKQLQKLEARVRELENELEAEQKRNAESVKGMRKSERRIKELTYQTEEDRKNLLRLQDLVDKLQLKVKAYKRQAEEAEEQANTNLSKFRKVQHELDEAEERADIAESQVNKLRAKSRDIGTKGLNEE
Test: Myofibril ATPase assay, porcine ventricle myofibrils
Assay type: biochemical, porcine (Yucatan minipigs)
Settings: porcine ventricle myofibrils; Y75 value
Just the number in µM, nothing appended.

Reference set, count: 2
Cc1nccc2[nH]c(=O)c(CC(=O)N[C@H](C)c3ccc(C#N)cc3F)c(C#N)c12 [compound 153] ... 100.00
Cc1c(CC(=O)N[C@@H](CO)c2ccc(C#N)cc2F)c(=O)[nH]c2ccnc(OC3CC3)c12 [compound 204] ... 7.78

Lab note: record Ventricular EC25 of Cc1c(CC(=O)N[C@@H](C)c2ccc(F)cc2F)c(=O)[nH]c2cnnc(O)c12 [compound 240] tested on Porcine ventricle myofibrils (ventricular myosin ATPase) (Sus scrofa).
100.00

Answer briefly: Ventricular EC25 recorded on Porcine ventricle myofibrils (ventricular myosin ATPase) (Sus scrofa) for Cc1c(CC(=O)N[C@H]2COc3cccnc32)c(=O)[nH]c2ccnc(C#N)c12 (single isomer, unassigned) [compound 213]
100.00
